Values were extracted from PubChem BioAssay (NCI).

test system: EKVX NSCLC; experiment: NCI tumour cell line growth inhibition, 48 h; in the data active = GI50 below about 0.43 µM; inactive = the rest
Could you please pick one outcome from this set? T for active, F for inactive

Here's what some known entries look like.
COC(=O)[C@]12CC[C@@H](C)[C@H](C)[C@@H]1C1=CC[C@@H]3[C@@]4(C)C(c5ncon5)=C[C@@](C)(CO)C4=CC[C@@]3(C)[C@]1(C)CC2 :: F
COc1cc(C(=O)/C=C/c2c(-c3ccc(F)cc3)nc3sccn23)cc(OC)c1OC :: F
Nc1c(C(=O)Nc2cccc3ccccc23)sc2nc3c(cc12)CCCC3 :: F

Dear all, I need the recorded test outcome for COc1ccc(N2CCN(CC(=O)N3CCN(c4nnc(-c5ccccc5)c(-c5ccccc5)n4)CC3)CC2)cc1 , thank you.
F
